Experiment: amyloid nucleation score (Sup35N fusion, yeast selection) (log enrichment); library NNK1; higher = more nucleation; inactive = no reads after selection;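 further: zero at mode of non-aggregating sequences after 7 days selection at 30°C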

[
  {
    "Substance": "SLDCWLMGGRTANLVRRLGR",
    "amyloid nucleation score": -0.39
  },
  {
    "Substance": "PRWSLCIPSVLSGVITTIMT",
    "amyloid nucleation score": 0.286
  },
  {
    "Substance": "EGMNLV",
    "amyloid nucleation score": 0.196
  },
  {
    "Substance": "PVYMGIAALYGPGCLTLLTV",
    "amyloid nucleation score": 2.07
  },
  {
    "Substance": "LVNCVVGFLTLVNFWSIHQL",
    "amyloid nucleation score": 0.206
  },
  {
    "Substance": "QCAYGWFRIIVITRFFCEDS",
    "amyloid nucleation score": -0.701
  },
  {
    "Substance": "TAASTHLVSACTLTKRCERL",
    "amyloid nucleation score": -0.673
  },
  {
    "Substance": "YSNSGMGNV",
    "amyloid nucleation score": 0.568
  },
  {
    "Substance": "IGIPVLGMNINYCFLR",
    "amyloid nucleation score": 0.931
  },
  {
    "Substance": "KLGGFVFGANVCCEDLSYEF",
    "amyloid nucleation score": 0.984
  },
  {
    "Substance": "CTYNLTCLWHMELNSSMIMR",
    "amyloid nucleation score": 5.37
  },
  {
    "Substance": "FLENSTTSYNCYFNARWKCS",
    "amyloid nucleation score": 0.389
  },
  {
    "Substance": "SVNRCFSAFLSQAIT",
    "amyloid nucleation score": 0.042
  },
  {
    "Substance": "MMIWNSNSEQVRCIIGMPWL",
    "amyloid nucleation score": 4.79
  },
  {
    "Substance": "QRCTIYRSSI",
    "amyloid nucleation score": "inactive"
  },
  {
    "Substance": "ALNGSNRIIACTIIWCVVW",
    "amyloid nucleation score": 2.51
  },
  {
    "Substance": "NQYSFRGLS",
    "amyloid nucleation score": "inactive"
  },
  {
    "Substance": "CQNYSHLWGEVTEWLCQRGP",
    "amyloid nucleation score": 3.39
  },
  {
    "Substance": "LWVFGCCIVRMIR",
    "amyloid nucleation score": 0.047
  },
  {
    "Substance": "QMKAVLRLRINICCPQVRGT",
    "amyloid nucleation score": 4.66
  },
  {
    "Substance": "SRFWGER",
    "amyloid nucleation score": 0.801
  },
  {
    "Substance": "VLVVTALLSRV",
    "amyloid nucleation score": 1.67
  },
  {
    "Substance": "TTLKGCSIY",
    "amyloid nucleation score": 0.934
  },
  {
    "Substance": "SCVAVSNNMILPRVSGLFEG",
    "amyloid nucleation score": 2.55
  },
  {
    "Substance": "IVMCEAYFK",
    "amyloid nucleation score": "inactive"
  },
  {
    "Substance": "FHLSDGDWYCHVESVTWRAC",
    "amyloid nucleation score": 0.375
  },
  {
    "Substance": "KWLTFVMDMSDLCYSSFNVN",
    "amyloid nucleation score": "inactive"
  },
  {
    "Substance": "WDVIYVFFIHIYQSVGS",
    "amyloid nucleation score": -0.48
  },
  {
    "Substance": "RVSVVQFMSKVPTRLMVIEW",
    "amyloid nucleation score": 0.705
  },
  {
    "Substance": "GGWSGRSLRDCVCMVHIKVG",
    "amyloid nucleation score": 0.071
  },
  {
    "Substance": "MWELRFVLCLMIHEFRRWHE",
    "amyloid nucleation score": -0.056
  },
  {
    "Substance": "TVFIKLKVFAMN",
    "amyloid nucleation score": 1.53
  },
  {
    "Substance": "DLIQLGLGQVSDPLGTWWSG",
    "amyloid nucleation score": 2.29
  },
  {
    "Substance": "SVVRNEIYRYYKCSKTVSIW",
    "amyloid nucleation score": -0.513
  },
  {
    "Substance": "QMCLFKVNLVVTISI",
    "amyloid nucleation score": "inactive"
  },
  {
    "Substance": "WSRAVVFMSIHFRNGLMQ",
    "amyloid nucleation score": -0.444
  },
  {
    "Substance": "FVLRLS",
    "amyloid nucleation score": "inactive"
  },
  {
    "Substance": "DAMHCCKTDYYIIGISGPSD",
    "amyloid nucleation score": 0.732
  },
  {
    "Substance": "VLTTGTYFATVYIK",
    "amyloid nucleation score": "inactive"
  },
  {
    "Substance": "TTRHSNQSIM",
    "amyloid nucleation score": 0.344
  },
  {
    "Substance": "HNCCDEVCGSNSGLFFRFMN",
    "amyloid nucleation score": 0.979
  },
  {
    "Substance": "QVYYVCGYTSDKLLKNSYNN",
    "amyloid nucleation score": -0.125
  },
  {
    "Substance": "MGVFRLNHSQTLRTGQSVEF",
    "amyloid nucleation score": -1.18
  },
  {
    "Substance": "YVLWNRASIAPYIQHGLRVL",
    "amyloid nucleation score": 1.19
  },
  {
    "Substance": "EGRPECKARLSRYGRCRMNG",
    "amyloid nucleation score": 0.447
  },
  {
    "Substance": "VITVSGSEGEIEWSS",
    "amyloid nucleation score": -1.64
  },
  {
    "Substance": "DAIVDS",
    "amyloid nucleation score": 0.084
  },
  {
    "Substance": "RSWKNKFYPVCFSKSGSRF",
    "amyloid nucleation score": -0.215
  },
  {
    "Substance": "DPYMNWIVLYSGVRHWNGVM",
    "amyloid nucleation score": 0.056
  },
  {
    "Substance": "RVNLFSPYAWCIQIGSHHYG",
    "amyloid nucleation score": 7.44
  },
  {
    "Substance": "VTRDMCGYLVCFWQYAG",
    "amyloid nucleation score": 7.73
  },
  {
    "Substance": "NIGMGSTLFLGRMSEQCWCS",
    "amyloid nucleation score": 2.32
  },
  {
    "Substance": "KLMVWITFGSWSRVGHWKGI",
    "amyloid nucleation score": -0.387
  },
  {
    "Substance": "GGYIDPLS",
    "amyloid nucleation score": "inactive"
  },
  {
    "Substance": "YFSLSVIREVCFFVPWKLRS",
    "amyloid nucleation score": 0.14
  },
  {
    "Substance": "SEFHFMRT",
    "amyloid nucleation score": -0.482
  },
  {
    "Substance": "KPLLTQQK",
    "amyloid nucleation score": -0.356
  },
  {
    "Substance": "TFSTGFGGIISLACVRRQYL",
    "amyloid nucleation score": 0.049
  },
  {
    "Substance": "CRVMEKIEVCYIRYFFSWLD",
    "amyloid nucleation score": 0.574
  },
  {
    "Substance": "SMVYAYAAIILGWWNWGRGC",
    "amyloid nucleation score": 0.003
  },
  {
    "Substance": "LGCFGIAATKIRKVDMRLGG",
    "amyloid nucleation score": 0.729
  },
  {
    "Substance": "DFRAIS",
    "amyloid nucleation score": 0.576
  },
  {
    "Substance": "PCIVKYRNSGLHNYRIRLNR",
    "amyloid nucleation score": -1.12
  },
  {
    "Substance": "TLLRLFEKPLICYVIGRSLI",
    "amyloid nucleation score": -1.09
  },
  {
    "Substance": "SLFKNR",
    "amyloid nucleation score": 0.171
  },
  {
    "Substance": "LATFVWPGHGRV",
    "amyloid nucleation score": 1.65
  },
  {
    "Substance": "NNMRVLLRFLSVVLGSGEVR",
    "amyloid nucleation score": 1.01
  },
  {
    "Substance": "MNEERVGNLIFCRDSFMSSW",
    "amyloid nucleation score": -0.096
  },
  {
    "Substance": "SRFNPSQRMHSNSGKGGVSF",
    "amyloid nucleation score": "inactive"
  },
  {
    "Substance": "KGISVTCEGK",
    "amyloid nucleation score": 1.24
  },
  {
    "Substance": "IGGLSGEYWFHLLSSSVLFF",
    "amyloid nucleation score": "inactive"
  },
  {
    "Substance": "PQALGSTHLQTRRDQHVIF",
    "amyloid nucleation score": -0.046
  },
  {
    "Substance": "ELYPGF",
    "amyloid nucleation score": -0.219
  }
]
